# target: human MRGPRX2 (Homo sapiens)
# assay.details: MRGPRX2 activity: IP-One HTRF antagonist assay versus 0.3 uM Cortistatin 14
# conditions.used: CHO cells expressing human MRGPRX2; IP-1 HTRF; versus 0.3 uM Cortistatin 14 agonist; read-out: MRGPR2 Antagonist Activity
reported.metric: IC50

# example entries with known answers
O=C(N[C@H]1CC[C@@H](Nc2cc(C(F)F)nc3ccc(Cl)cc23)CC1)c1ccc(F)cc1: 100 to 500 nM
CC(=O)Nc1cccc(C(=O)N[C@H]2CC[C@@H](Nc3cc(C(F)(F)F)nc4ccc(Cl)cc34)CC2)c1: < 100 nM
COc1ccc(C(=O)N[C@H]2CC[C@@H](Nc3cc(C(F)(F)F)nc4ccccc34)CC2)cc1F: 501 to 1000 nM
CS(=O)(=O)c1ccc(C(=O)N[C@H]2CC[C@@H](Nc3cc(C(F)(F)F)nc4ccc(Cl)cc34)CC2)c(Cl)c1: 100 to 500 nM
CCC(C(=O)N[C@H]1CC[C@@H](Nc2cc(C(F)(F)F)nc3ccccc23)CC1)c1ccccc1 (stereo partly shown): 1000 to 2500 nM
CCCS(=O)(=O)Nc1ccc(F)c(C(=O)N[C@H]2CC[C@@H](Nc3cc(C(F)(F)F)nc4ccc(Cl)cc34)CC2)c1F: 100 to 500 nM

Query: Determine from records and report IC50 for O=C(N[C@H]1CC[C@@H](Nc2cc(C(F)(F)F)nc3ccccc23)CC1)c1ccccc1Cl
Reply: 100 to 500 nM

---

Each record here notes measured IC50.
# target: human MRGPRX2 (Homo sapiens, UniProt Q96LB1)
# assay.details: MRGPRX2 activity: IP-One HTRF antagonist assay versus 0.3 uM Cortistatin 14
# conditions.used: CHO cells expressing human MRGPRX2; IP-1 HTRF; versus 0.3 uM Cortistatin 14 agonist; read-out: MRGPR2 Antagonist Activity

Examples with answers:
CN(C)C(=O)Nc1cccc(C(=O)N[C@H]2CC[C@@H](Nc3cc(C(F)(F)F)nc4ccc(Cl)cc34)CC2)c1: 100 to 500 nM
O=C(N[C@H]1CC[C@@H](Nc2cc(C(F)(F)F)nc3ccccc23)CC1)[C@H]1C[C@@H]1c1ccccc1: 1000 to 2500 nM
O=C(N[C@H]1CC[C@@H](Nc2cc(C(F)(F)F)nc3ccc(Cl)cc23)CC1)c1ccc2oc(=O)ccc2c1: 100 to 500 nM

Here is another compound to look at.
Query: State IC50 (human MRGPRX2 (Homo sapiens, UniProt Q96LB1)) of COc1ccc(C(=O)N[C@H]2CC[C@@H](Nc3cc(C(F)(F)F)nc4ccc(Cl)cc34)CC2)c(C)n1 .
Reply: 501 to 1000 nM

---

Property: IC50; scope: individual compounds
# System: Human LAD2 cells
# assay.details: Mast Cell Beta-Hexosaminidase Release Assay (versus 500 nM Cortistatin-14)
# Format: cell-based
# conditions.used: 500 nM Cortistatin-14 agonist, read-out: MRGPR2 Antagonist Activity

O=C(N[C@H]1CC[C@@H](Nc2cc(C(F)(F)F)nc3ccccc23)CC1)c1ccccc1 [3-30]: 501 to 1000 nM
O=C(N[C@H]1CC[C@@H](Nc2cc(C(F)(F)F)nc3ccccc23)CC1)c1ccc(Cl)cc1 [3-10]: 100 to 500 nM
CN(C)c1ccc(C(=O)N[C@H]2CC[C@@H](Nc3cc(C(F)(F)F)nc4ccccc34)CC2)cc1 [3-25]: 100 to 500 nM
CNc1ccc(C(=O)N[C@H]2CC[C@@H](Nc3cc(C(F)(F)F)nc4ccc(Cl)cc34)CC2)cc1 [4-9]: < 100 nM

Query: Answer with the recorded IC50 for the compound listed here: O=C(N[C@H]1CC[C@@H](Nc2nc(C(F)(F)F)nc3ccccc23)CC1)c1ccc(F)cc1 [1-7]
Reply: 501 to 1000 nM

Query: For the compound O=C(N[C@H]1CC[C@@H](Nc2cc(C(F)(F)F)nc3ccc(F)cc23)CC1)c1ccc(F)cc1 [1-4] , report IC50.
Reply: 100 to 500 nM

---

# target: human MRGPRX2 (Homo sapiens)
# Sequence (Q96LB1 1-330): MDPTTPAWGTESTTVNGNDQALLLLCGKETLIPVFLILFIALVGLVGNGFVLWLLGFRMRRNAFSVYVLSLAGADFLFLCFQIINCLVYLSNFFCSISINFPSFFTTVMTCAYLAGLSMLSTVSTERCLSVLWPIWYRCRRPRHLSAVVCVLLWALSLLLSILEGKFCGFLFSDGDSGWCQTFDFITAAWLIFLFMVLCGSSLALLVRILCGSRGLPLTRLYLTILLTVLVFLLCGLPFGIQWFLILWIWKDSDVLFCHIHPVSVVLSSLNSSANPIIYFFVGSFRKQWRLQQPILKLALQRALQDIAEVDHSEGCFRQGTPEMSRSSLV
# assay.details: MRGPRX2 activity: IP-One HTRF antagonist assay versus 0.3 uM Cortistatin 14
# conditions.used: CHO cells expressing human MRGPRX2; IP-1 HTRF; versus 0.3 uM Cortistatin 14 agonist; read-out: MRGPR2 Antagonist Activity
reported.metric: IC50

O=C(N[C@H]1CC[C@@H](Nc2cc(C(F)(F)F)nc3ccccc23)CC1)c1ccc(Cl)s1 [4-241]: 501 to 1000 nM
Cn1cc(I)c(C(=O)N[C@H]2CC[C@@H](Nc3cc(C(F)(F)F)nc4ccc(Cl)cc34)CC2)n1 [4-90]: 501 to 1000 nM
CC(=O)Nc1ccc(C(=O)N[C@H]2CC[C@@H](Nc3cc(C(F)(F)F)nc4ccc(Cl)cc34)CC2)cc1 [4-103]: < 100 nM
O=C(N[C@H]1CC[C@@H](Nc2cc(C(F)(F)F)nc3ccccc23)CC1)c1ccccn1 [3-21]: 501 to 1000 nM
O=C(N[C@H]1CC[C@@H](Nc2cc(C(F)(F)F)nc3ccc(Cl)cc23)CC1)c1ccc2nc(Cl)sc2c1 [4-57]: 501 to 1000 nM
O=C(N[C@H]1CC[C@@H](Nc2cc(C(F)(F)F)nc3ccccc23)CC1)c1ccccc1 [3-30]: 100 to 500 nM
O=C(N[C@H]1CC[C@@H](Nc2cc(C(F)(F)F)nc3ccccc23)CC1)c1ccc2ncccc2n1 [4-265]: 1000 to 2500 nM

Here is the next item to consider.
Query: Consider the compound N#Cc1csc(C(=O)N[C@H]2CC[C@@H](Nc3cc(C(F)(F)F)nc4ccccc34)CC2)c1 [4-243] tested on human MRGPRX2 (Homo sapiens); state its IC50.
Reply: 501 to 1000 nM

---

Form field: pIC50 (one value per entry).
# target: UniProt Q96LB1
# assay.details: MRGPRX2 activity: IP-One HTRF antagonist assay versus 0.3 uM Cortistatin 14
# conditions.used: CHO cells expressing human MRGPRX2; IP-1 HTRF; versus 0.3 uM Cortistatin 14 agonist; read-out: MRGPR2 Antagonist Activity
# Method: CHO cells stably transfected to express human MRGPRX2 were maintained in an incubator at 37° C. with 5% CO2 and grown in F12 (HAM) media with 10% fetal bovine serum (FBS), 1% Glutamax, 1% penicillin/streptomycin, 800 μg/mL Geneticin (G418), and 300 μg/mL Hygromycin B. Cells were plated in a […] assay plate at 20,000 cells per well in 12 μL of Opti-MEM and kept in an incubator overnight. […] The plate was read on a Molecular Devices SpectraMax iD5 plate reader. […]
pIC50: −log10 of the molar value.

O=C1Nc2c(C(=O)N[C@H]3CC[C@@H](Nc4cc(C(F)(F)F)nc5ccc(Cl)cc45)CC3)cccc2C1=O: 6.30 to 7.00

Query: Name the value of pIC50 reported for O=C(N[C@H]1CC[C@@H](Nc2cc(C(F)(F)F)nc3ccccc23)CC1)c1cccc(F)c1 when tested on UniProt Q96LB1.
Reply: 6.30 to 7.00

Query: Please respond with reported pIC50 (system UniProt Q96LB1) for O=C(N[C@H]1CC[C@@H](Nc2cc(C(F)(F)F)nc3ccccc23)CC1)c1cccs1 .
Reply: 6.00 to 6.30

Query: Print UniProt Q96LB1 pIC50 for O=C(N[C@H]1CC[C@@H](Nc2cc(C(F)(F)F)nc3ccccc23)CC1)c1coc2ccccc12 .
Reply: 6.30 to 7.00

---

# target: human MRGPRX2 (Homo sapiens, UniProt Q96LB1)
# assay.details: MRGPRX2 activity: IP-One HTRF antagonist assay versus 0.3 uM Cortistatin 14
# conditions.used: CHO cells expressing human MRGPRX2; IP-1 HTRF; versus 0.3 uM Cortistatin 14 agonist; read-out: MRGPR2 Antagonist Activity
pIC50: −log10 of the molar value.
reported.metric: pIC50

Some molecules with known pIC50 results, for comparison:
O=C(N[C@H]1CC[C@@H](Nc2cc(C(F)(F)F)nc3ccc(Cl)cc23)CC1)c1n[nH]c2c1COCC2: 6.00 to 6.30
O=C(N[C@H]1CC[C@@H](Nc2cc(C(F)(F)F)nc3ccccc23)CC1)c1ccnc2ccccc12: 5.60 to 6.00
O=C(CCOc1cccc(F)c1)N[C@H]1CC[C@@H](Nc2cc(C(F)(F)F)nc3ccc(Cl)cc23)CC1: < 5.60
O=C(N[C@H]1CC[C@@H](Nc2cc(C(F)(F)F)nc3ccc(Cl)cc23)CC1)c1ccc2[nH]c(-c3ccncc3)nc2c1: > 7.00

// moving on: another record for pIC50
Query: # assay system human MRGPRX2 (Homo sapiens, UniProt Q96LB1): give pIC50 of O=C(N[C@H]1CC[C@@H](Nc2cc(C(F)(F)F)nc3ccc(Cl)cc23)CC1)C1CCN(C(=O)c2ccccc2Cl)CC1
Reply: < 5.60
